# testedTarget: Rat Hepatic V1 Receptors (vasopressin V1) (Rattus norvegicus, UniProt P30560)
# Construct: Rat liver plasma membranes expressing the vasopressin V1 receptor subtypes are isolated by sucrose density gradient; from tissue; host or cells: rat liver plasma membranes
# Sequence (P30560 whole entry): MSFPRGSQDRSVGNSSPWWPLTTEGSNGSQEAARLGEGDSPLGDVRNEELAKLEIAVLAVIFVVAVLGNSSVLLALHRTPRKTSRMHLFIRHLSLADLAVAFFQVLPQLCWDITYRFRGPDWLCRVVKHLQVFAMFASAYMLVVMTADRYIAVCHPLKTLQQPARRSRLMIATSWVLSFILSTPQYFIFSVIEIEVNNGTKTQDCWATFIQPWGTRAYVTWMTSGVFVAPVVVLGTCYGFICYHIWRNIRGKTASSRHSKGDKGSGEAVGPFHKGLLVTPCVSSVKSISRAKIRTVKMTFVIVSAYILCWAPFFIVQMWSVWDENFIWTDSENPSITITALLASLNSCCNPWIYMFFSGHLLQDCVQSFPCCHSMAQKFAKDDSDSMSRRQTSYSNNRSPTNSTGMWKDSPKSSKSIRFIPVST
# procedureText: Binding Assay to Rat Hepatic V1 Receptors
# statedConditions: rat hepatic V1, [3H]vasopressin
resultType: IC50
Record the result as a number with its unit.

Some solved entries appear below for comparison.
>>> recordedmeasurement("Cc1ccccc1C(=O)Nc1ccc(C(=O)N2CCCCc3sc(Cl)cc32)cc1")
"0.088 µM"
>>> recordedmeasurement("O=C(Nc1ccc(C(=O)N2CCCCc3sccc32)cc1)c1cc(Cl)ccc1Cl")
"0.21 µM"
>>> recordedmeasurement("O=C(Cc1ccccc1)Nc1ccc(C(=O)N2CCCCc3sccc32)cc1")
"0.26 µM"
>>> recordedmeasurement("Cc1ccsc1C(=O)Nc1ccc(C(=O)N2CCCCc3sccc32)cc1")
"0.059 µM"
>>> recordedmeasurement("Cc1ccc(C(=O)Nc2ccc(C(=O)N3CCCCc4sccc43)cc2)c(C)c1")
"0.28 µM"

[in] Form field: reported IC50 of "Cc1c(F)cccc1C(=O)Nc1ccc(C(=O)N2CCCC(=O)c3sccc32)cc1"
[out] 7.6 µM

[in] Form field: reported IC50 of "O=C(Nc1ccc(C(=O)N2CCCC(=O)c3sccc32)cc1)c1ccc(Cl)cc1Cl"
[out] 5.5 µM

* * *

# testedTarget: oxytocin receptors (Rattus norvegicus)
# Construct: The uteri are dissected out, cleaned of fat and connective tissues; from tissue; host or cells: uterus membranes of DES-treated female Sprague-Dawley rats
# Sequence (P70536 1-388): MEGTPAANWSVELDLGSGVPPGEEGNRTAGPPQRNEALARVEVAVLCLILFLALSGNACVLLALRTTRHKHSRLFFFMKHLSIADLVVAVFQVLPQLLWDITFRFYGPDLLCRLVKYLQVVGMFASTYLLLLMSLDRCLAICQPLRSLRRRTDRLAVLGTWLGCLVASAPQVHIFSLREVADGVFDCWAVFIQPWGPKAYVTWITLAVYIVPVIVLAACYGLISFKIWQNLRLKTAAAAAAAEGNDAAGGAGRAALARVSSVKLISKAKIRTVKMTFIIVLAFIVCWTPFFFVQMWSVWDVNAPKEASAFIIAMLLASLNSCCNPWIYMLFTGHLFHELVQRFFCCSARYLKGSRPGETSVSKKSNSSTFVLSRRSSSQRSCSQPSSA
# procedureText: Oxytocin Receptor Binding
# Design: species or system Sprague-Dawley rats
# statedConditions: 1.0 nM [3H]oxytocin
IC50 values for the compounds below.
Write down the numeric answer in µM and omit the unit.

>>> recordedmeasurement("CCCCOc1ccc(C(=O)N2CCCCc3sccc32)cc1 [Example 233]")
0.95
>>> recordedmeasurement("O=C(Nc1ccc(C(=O)N2CCCCc3sc(Cl)cc32)cc1)c1c(Cl)cccc1Cl [Example 95]")
1.38

Here's the next entry for you.
[in] What value of IC50 on oxytocin receptors (Rattus norvegicus) does Cc1c(F)cccc1C(=O)Nc1ccc(C(=O)N2CCCCc3sc(Cl)cc32)cc1 [Example 94] have?
[out] 0.95

* * *

# testedTarget: oxytocin receptors (Rattus norvegicus)
# Construct: The uteri are dissected out, cleaned of fat and connective tissues; from tissue; host or cells: uterus membranes of DES-treated female Sprague-Dawley rats
# procedureText: Oxytocin Receptor Binding
# Parameters: species or system Sprague-Dawley rats
# statedConditions: 10 μM
resultType: inhibition at 10 µM (%)
Write down the numeric answer in % and omit the unit.

Some solved entries appear below for comparison.
>>> recordedmeasurement("O=C(Nc1ccc(C(=O)N2CCCCc3sccc32)cc1)c1cc(Cl)ccc1Cl [Example 9]")
60
>>> recordedmeasurement("Cc1ccccc1C(=O)Nc1ccc(C(=O)N2CCCC(=O)c3sccc32)cc1 [Example 157]")
29
>>> recordedmeasurement("Cc1c(F)cccc1C(=O)Nc1ccc(C(=O)N2CCCC(=O)c3sccc32)cc1 [Example 155]")
16

[in] Form field: reported inhibition at 10 µM of O=C(Nc1ccc(C(=O)N2CCCCc3sc(Cl)cc32)cc1)c1c(Cl)cccc1Cl [Example 95]
[out] 85
